// provenance: patent US10144715B2

Molecular target: Gal4 DNA binding domain fused to the LBD of LXRα in HEK293 cells (Homo sapiens (Human), UniProt Q13133)
Sequence (Q13133 209-447): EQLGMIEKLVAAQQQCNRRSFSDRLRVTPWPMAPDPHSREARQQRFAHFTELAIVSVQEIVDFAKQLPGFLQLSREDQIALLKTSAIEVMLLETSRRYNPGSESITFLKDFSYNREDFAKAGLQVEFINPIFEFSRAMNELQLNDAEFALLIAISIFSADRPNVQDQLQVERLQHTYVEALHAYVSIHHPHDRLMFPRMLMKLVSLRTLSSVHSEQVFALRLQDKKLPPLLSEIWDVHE
Assay: LXR luciferase transcriptional reporter gene assay, agonist mode, LXRα
Assay type: cell-based
Settings: read-out: Cell LXRα EC50
In this section, each of the compounds is paired with its reported EC50.
# value in µM; strip the unit string

# example entries with known answers
CC(C)[C@@H]1CN(c2ccc(F)c(S(C)(=O)=O)c2)CCN1c1ncc(C(F)(F)F)c(C(N)=O)n1 ... 2.95
CS(=O)(=O)c1cccc(N2CCN(C[C@H]3CC[C@@H](C(F)F)CC3)[C@H](c3ccccc3)C2)c1 (single isomer, unassigned) ... 2.44
CC(C)[C@@H]1CN(c2cccc(S(C)(=O)=O)c2)CCN1c1ccc(C2CC2)nn1 ... 4.92

Now look at this entry.
Query: Could you tell me which EC50 is on file for Cc1cc(C(F)(F)F)nc(N2CCN(c3ccc(F)c(S(C)(=O)=O)c3)C[C@H]2C(C)C)n1 ?
Reply: 1.11

====

In this section, each of the molecules is paired with its reported log10 EC50.
Target: Gal4 DNA binding domain fused to the LBD of LXRβ in HEK293 cells (Homo sapiens (Human), UniProt P55055)
Sequence (P55055 222-460 limits assumed): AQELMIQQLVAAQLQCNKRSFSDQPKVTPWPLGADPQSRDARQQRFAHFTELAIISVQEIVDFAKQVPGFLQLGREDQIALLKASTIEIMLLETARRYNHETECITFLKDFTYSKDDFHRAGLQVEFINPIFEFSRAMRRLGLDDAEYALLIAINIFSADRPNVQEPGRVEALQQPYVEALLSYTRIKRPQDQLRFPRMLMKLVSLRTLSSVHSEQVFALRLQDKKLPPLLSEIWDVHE
Assay: cell-based
Please interpret these as log10 of EC50 where EC50 is in nM.

# example entries with known answers
CC(C)[C@@H]1CN(c2ccc(F)c(S(C)(=O)=O)c2)CCN1c1ncc(Cl)c(C2CC2)n1 ... 2.14
CC(C)[C@@H]1CN(c2cccc(S(C)(=O)=O)c2)CCN1C(=O)OC(C)(C)C ... 2.67
CC(C)[C@@H]1CN(c2ccc(F)c(S(C)(=O)=O)c2)CCN1c1nccc(C2CC2)n1 ... 1.98
CS(=O)(=O)c1cccc(N2CCN(C[C@H]3CC[C@@H](C(F)(F)F)CC3)[C@@H](c3ccc(F)cc3)C2)c1 ... 1.67
Cc1cnc(N2CCN(c3ccc(F)c(S(C)(=O)=O)c3)C[C@H]2C(C)C)nc1C(F)(F)F ... 1.04

Query: Could you tell me which log10 EC50 is on file for CC(C)[C@@H]1CN(c2cccc(S(C)(=O)=O)c2)CCN1c1nccc(OC(F)F)n1 ?
Reply: 2.31

Query: Could you tell me which log10 EC50 is on file for CS(=O)(=O)c1cccc(N2CCN(C[C@@H]3CCN(CC(F)(F)F)C3)[C@@H](c3ccccc3)C2)c1 (single isomer, unassigned) ?
Reply: 2.67

Query: Could you tell me which log10 EC50 is on file for CO[C@]1(C(F)(F)F)CC[C@@H](CN2CCN(c3ccc(CO)c(S(C)(=O)=O)c3)C[C@@H]2C(C)C)CC1 (single isomer, unassigned) ?
Reply: 0.00

Query: Could you tell me which log10 EC50 is on file for CCOC(=O)c1cnc(N2CCN(c3ccc(F)c(S(C)(=O)=O)c3)C[C@H]2C2CC2)nc1C(F)(F)F ?
Reply: 2.50

Query: Could you tell me which log10 EC50 is on file for CS(=O)(=O)c1cccc(N2CCN(C[C@H]3CCN(CC(F)(F)F)C3)[C@H](c3ccccc3)C2)c1 (single isomer, unassigned) ?
Reply: 3.83

====

Target: Gal4 DNA binding domain fused to the LBD of LXRα in HEK293 cells (Homo sapiens (Human), UniProt Q13133)
Assay: LXR luciferase transcriptional reporter gene assay, agonist mode, LXRα
Format: cell-based
In this section, each of the compounds is paired with its reported Cell LXRα efficacy.

# example entries with known answers
CC(C)(F)CC1CN(c2ccc(F)c(S(C)(=O)=O)c2)CCN1c1ccc(C(F)(F)F)cn1 (centres unmarked) ... 1522 (97) %
CC(C)[C@@H]1CN(c2ccc(F)c(S(C)(=O)=O)c2)CCN1c1cncc(C(F)(F)F)n1 ... 377 (85) %
CC(C)[C@@H]1CN(c2ccc(C#N)c(S(C)(=O)=O)c2)CCN1c1ncc([C@H](C)O)c(C(F)(F)F)n1 (single isomer, unassigned) ... 1481 (22) %

Query: Could you tell me which Cell LXRα efficacy is on file for CC(=O)c1cnc(N2CCN(c3ccc(F)c(S(C)(=O)=O)c3)C[C@H]2c2ccc(F)cc2)nc1C(F)(F)F ?
Reply: 2458 (21) %

Query: Could you tell me which Cell LXRα efficacy is on file for CC(C)[C@@H]1CN(c2ccc(F)c(S(C)(=O)=O)c2)CCN1c1ncc(CN(C)CCCO)c(C(F)(F)F)n1 ?
Reply: 4170 (10) %

Query: Could you tell me which Cell LXRα efficacy is on file for CC(C)[C@@H]1CN(c2ccc(F)c(S(C)(=O)=O)c2)CCN1c1ncc(C(F)(F)F)cc1N ?
Reply: 3767 (74) %

Query: Could you tell me which Cell LXRα efficacy is on file for CSCc1cnc(N2CCN(c3ccc(F)c(S(C)(=O)=O)c3)C[C@H]2C(C)C)nc1C(F)(F)F ?
Reply: 219 (44) %

Query: Could you tell me which Cell LXRα efficacy is on file for CS(=O)(=O)c1cccc(N2CCN(C[C@@H]3CCC[C@H](C(F)(F)F)C3)[C@@H](c3ccc(F)cc3)C2)c1 (single isomer, unassigned) ?
Reply: 1459 (7) %

Query: Could you tell me which Cell LXRα efficacy is on file for Cc1coc(-c2ccc(N3CCN(c4ncc(CO)c(C(F)(F)F)n4)[C@H](C(C)C)C3)cc2S(C)(=O)=O)n1 ?
Reply: 2934 (53) %
